Measure Name: logP

# Query Smiles, Measure Name, Recorded Measurement
data = [
    ("C1=CC=CCC=C1", "logP", 2.63),
]

* * *

# Molecule, logP
data = [
    ("CCC(O)(CCC(N)=O)c1ccccc1 (stereo unspecified)", 2.11),
]

* * *

# Method Description: method code SF-AS, from DOI: 10.1006/pest.1994.1014

# Query Smiles, logP
rows = [
    ("CC(C)(C)N(NC(=O)c1ccccc1F)C(=O)c1ccccc1Cl", 2.63),
    ("CC(C)(C)N(NC(=O)c1cccc(Cl)c1)C(=O)c1ccccc1Cl", 3.49),
    ("CC(C)(C)N(NC(=O)c1cccc(F)c1)C(=O)c1ccccc1Cl", 2.88),
    ("Cc1cccc(C(=O)NN(C(=O)c2ccccc2Cl)C(C)(C)C)c1", 3.11),
]
